- ASSAY SUMMARY: Solvent conversion rate in batch-wise hydration reaction of cyclohexene (H-ZSM-5 zeolite-A)
- Format: physicochemical
- RECORDED CONDITIONS: H-ZSM-5-A, 120° C., 1 hour, 20 g solvent
Solvent convertion rate reference
State the answer as a number, implicitly in %.

// solved cases for Solvent convertion rate follow
COMPOUND: CC1=CC(=O)CC(C)(C)C1
Solvent convertion rate (%): 0.00
--
COMPOUND: CC1CC(=O)CC(C)(C)C1 (stereo not shown)
Solvent convertion rate (%): 0.00
--
COMPOUND: OCCOc1ccccc1
Solvent convertion rate (%): 0.70

Next up:
Ask | Fill blank: measured Solvent convertion rate of the compound OCCc1ccccc1 is ____.
Reply | 0.35
